Data origin: the supplement of paper PMC10567573

# assay: protein stability index of a GFP-peptide fusion (GPS, HEK-293T) (PSI 1-6); higher = more stable;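 further: 24-mer peptide tiles fused after GFP, lentivirally expressed, FACS-sorted into six equal bins by GFP/DsRed ratio, decoded by Illumina sequencing, PSI is the read-weighted mean bin number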
# appliedConditions: treatment: DMSO; c terminus: a fixed tail appended
The following sequences are listed with their measured protein stability index values.

The following sequences have reported results that may help.
sequencedata="INRTFFFDVHPPLGKMLIGLAGYL [POMT2]" assayendpoint="protein stability index" testvalue=3.07
sequencedata="PRSCSSGPAGPYLLSKKGALQSRA [PLEKHN1]" assayendpoint="protein stability index" testvalue=3.96
sequencedata="GSLCSLWFGASVLSLLELLELLLD [SCNN1D]" assayendpoint="protein stability index" testvalue=2.17
sequencedata="MGLYDGMEHLIYGEPRKLLTQDWV [MAGEA10]" assayendpoint="protein stability index" testvalue=2.25
sequencedata="KVLLCHGELRSKSGHKLYIFLFQD [NET1]" assayendpoint="protein stability index" testvalue=2.62

Kindly note the recorded protein stability index for GCKGFFRRSVRKNHMYSCRFSRQC [HNF4A] , which is 2.15

The measured protein stability index associated with FKNRLVNIMPYESTRVCLQPIRGV [PTPRD] reads 2.35

Form field protein stability index, entry SVCSCTCYRSQDYGGRSVAPQNSF [KCNK9] : 2.44

protein stability index in this record for IRKGESRSEALAVDGAGKPGAEEA [CHGA] : 5.48

# sequence HVRHMAYQLCHALRFLHENQLTHT [CLK3] ; its protein stability index = 3.06

Form: sequence = CPWEPQKQPPWEFLQVLEPGARGL [SPAG8] ; protein stability index = 3.11

Lab note: measured protein stability index of GHKEEEDGEGAGPGEQGGGKLVLS [ESRRA] was 5.3

* * *

# assay: protein stability index of a GFP-peptide fusion (GPS, HEK-293T) (PSI 1-6); higher = more stable
# appliedConditions: treatment: MLN4924 1 uM, 8 h; c terminus: a fixed tail appended
assayEndpoint: protein stability index

The recorded protein stability index for QPPPAPPKKIMPEAHSHYLYGHML [PPFIA4] is 2.91

sequence DSGVGASLTRSNRHRLRWHSFQSS [DLC1] , protein stability index observed: 3.04

For reference, reported protein stability index for EALAKQVASEMRFVQDLVRALEQE [DAPK3] stands at 3.09

The sequence listed as LASLSFIDTVYSTAFAPKMIVDLL [OR4A15] shows protein stability index equal to 3.05

* * *

# assay: protein stability index of a GFP-peptide fusion (GPS, HEK-293T) (PSI 1-6); higher = more stable
# appliedConditions: treatment: DMSO; c terminus: a fixed tail appended
assayEndpoint: protein stability index
Kindly provide the number alone.

Before answering, review these 2 worked examples.
sequencedata="QPAFTGIKGKEGSALTEGAKEEGG [EPB41L3]" testvalue=5.5
sequencedata="ASGKLRKKKKKQKNKKSSTGEASE [TCF25]" testvalue=4.9

# input for lookup
The sequence identified as EVGSMKIQSGAWVCYQYPGYRGYQ [CRYBA1] registered its protein stability index at 2.08

* * *

# assay: protein stability index of a GFP-peptide fusion (GPS, HEK-293T) (PSI 1-6); higher = more stable
# appliedConditions: treatment: DMSO; c terminus: a fixed tail appended
Label Condition not met if protein stability index falls below 4; label Condition met in every other case.

Record excerpt, results attached:
sequencedata="PLSPPTAPDRATAVATASRLGPYV [TRIB3]" discretelabel="Condition met"
sequencedata="PQVWREAATQVFFALGLGFGGVIA [SLC6A17]" discretelabel="Condition not met"
sequencedata="RETNKSRGFAFVTFESPADAKDAA [RBMX]" discretelabel="Condition met"
sequencedata="PDIRTKDIEDVFYKYGAIRDIDLK [SRSF1]" discretelabel="Condition not met"
sequencedata="QIEERHQEKKRKFLESTDSFNNEL [SMARCE1]" discretelabel="Condition met"
sequencedata="ASGVGFILGPVVGGYLTELEDGFY [MFSD9]" discretelabel="Condition not met"
sequencedata="QVITLDQVLDEVIPIHGKGNFPTM [TENT5D]" discretelabel="Condition not met"

Next sequence, please.
In plain terms: is recorded protein stability index at least 4 for LLLEMLTFNPHKRISAFRALQHSY [CDK4] ? Condition not met
